The origin of these recorded values is patent US9499495B2.

IC50 values, listed per item
Test system: pERK in A375 cells
Test: In Cell Western (ICW) assay, pERK in A375 cells
Format: cell-based
Settings: Homo sapiens, A-375, 3 h treatment

line notation | measured property | result
NC(=O)COc1cc(-c2cccc(NS(=O)(=O)CCCF)c2F)cc2c(N3CCOCC3)nc(-c3ccc(N)nc3)nc12 | IC50 | 1000 to 10000 nM
CCCS(=O)(=O)Nc1cccc(-c2cc(OC)c3nc(-n4c(C(F)F)nc5ccccc54)nc(N4CCOCC4)c3c2)c1F | IC50 | 100 to 1000 nM
CCCS(=O)(=O)Nc1cccc(-c2cc(OC)c3nc(-c4cnc(N)c(C)c4)nc(N4CCOCC4)c3c2)c1F | IC50 | 100 to 1000 nM
CCCS(=O)(=O)Nc1cccc(-c2ccc3nc(-c4ccc(N)nc4)nc(N4CCOCC4)c3n2)c1F | IC50 | 100 to 1000 nM
CCCS(=O)(=O)Nc1ccc(F)c(-c2cc(OC)c3nc(-c4cnc(N)nc4)nc(N4CCOCC4)c3c2)c1F | IC50 | 100 to 1000 nM

Give a short answer stating reported IC50 for NCCOc1cc(-c2cccc(NS(=O)(=O)CCCF)c2F)cc2c(N3CCOCC3)nc(-c3ccc(N)nc3)nc12 .
1 to 100 nM

Give a short answer stating reported IC50 for C[C@@H]1COCCN1c1nc(-c2ccc(N)nc2)nc2c(OC3CCCC3)cc(-c3cccc(NS(=O)(=O)CCCF)c3F)cc12 .
1 to 100 nM

Give a short answer stating reported IC50 for CC(C)Nc1ccc(-c2nc(N3CCOCC3)c3nc(-c4cccc(NS(=O)(=O)CCCF)c4F)ccc3n2)cn1 .
1 to 100 nM

Give a short answer stating reported IC50 for CCCS(=O)(=O)Nc1ccc(Cl)c(-c2cc(OC)c3nc(-c4ccc(N)nc4)nc(N4CCOCC4)c3c2)c1F .
100 to 1000 nM

Give a short answer stating reported IC50 for COc1cc(-c2cccc(NS(=O)(=O)CCCF)c2F)cc2c(N3CCOCC3)nc(-c3cnc4[nH]ccc4c3)nc12 .
1 to 100 nM

Give a short answer stating reported IC50 for COc1cc(-c2cccc(NS(=O)(=O)c3cccs3)c2F)cc2c(N3CCOCC3)nc(-c3ccc(N)nc3)nc12 .
1 to 100 nM

Give a short answer stating reported IC50 for CCCS(=O)(=O)Nc1cccc(-c2ccc3nc(-c4cnc(N)nc4)nc(N4CCOCC4)c3n2)c1F .
100 to 1000 nM

###

IC50 values, listed per item
Target: mTOR kinase (Homo sapiens, UniProt P42345)
Sequence (P42345 1362-2549 limits assumed): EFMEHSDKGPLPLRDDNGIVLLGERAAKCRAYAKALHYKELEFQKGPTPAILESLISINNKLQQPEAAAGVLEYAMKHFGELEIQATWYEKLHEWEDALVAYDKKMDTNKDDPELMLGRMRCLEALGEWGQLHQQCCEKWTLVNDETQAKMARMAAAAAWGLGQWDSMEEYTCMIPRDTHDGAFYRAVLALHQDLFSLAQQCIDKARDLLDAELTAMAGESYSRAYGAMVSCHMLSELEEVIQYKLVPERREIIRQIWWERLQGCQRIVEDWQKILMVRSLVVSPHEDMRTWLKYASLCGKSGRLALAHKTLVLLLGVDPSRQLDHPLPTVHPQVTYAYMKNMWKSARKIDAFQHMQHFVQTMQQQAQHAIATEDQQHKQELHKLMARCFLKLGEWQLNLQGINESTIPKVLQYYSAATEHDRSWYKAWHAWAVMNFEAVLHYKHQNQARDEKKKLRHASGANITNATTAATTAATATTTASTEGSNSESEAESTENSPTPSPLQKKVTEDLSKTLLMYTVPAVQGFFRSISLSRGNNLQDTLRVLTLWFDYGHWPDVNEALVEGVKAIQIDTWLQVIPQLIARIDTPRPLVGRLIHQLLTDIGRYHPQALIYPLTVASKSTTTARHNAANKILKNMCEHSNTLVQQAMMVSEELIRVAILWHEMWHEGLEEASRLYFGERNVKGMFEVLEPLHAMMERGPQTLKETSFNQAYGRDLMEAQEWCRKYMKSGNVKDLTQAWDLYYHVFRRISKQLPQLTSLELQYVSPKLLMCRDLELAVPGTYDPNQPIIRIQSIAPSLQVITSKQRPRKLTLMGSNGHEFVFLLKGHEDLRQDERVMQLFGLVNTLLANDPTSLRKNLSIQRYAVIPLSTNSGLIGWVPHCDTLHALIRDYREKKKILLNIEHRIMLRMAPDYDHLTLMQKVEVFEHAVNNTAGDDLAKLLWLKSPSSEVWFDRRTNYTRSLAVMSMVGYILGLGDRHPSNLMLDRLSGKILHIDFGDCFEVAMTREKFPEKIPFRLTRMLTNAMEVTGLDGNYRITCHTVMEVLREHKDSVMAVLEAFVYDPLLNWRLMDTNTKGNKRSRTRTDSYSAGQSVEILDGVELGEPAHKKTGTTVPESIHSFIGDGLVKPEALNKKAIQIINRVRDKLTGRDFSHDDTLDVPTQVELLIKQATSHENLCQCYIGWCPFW

Below, 2 compounds whose answers are already recorded.
line notation | target system | IC50
CCS(=O)(=O)Nc1cccc(-c2cc(OC)c3nc(-c4cnc(N)nc4)nc(N4CCOCC4)c3c2)c1F | mTOR kinase (Homo sapiens, UniProt P42345) | 100 to 1000 nM
C[C@H]1COCCN1c1nc(-c2cnc(N)cc2F)nc2ccc(-c3cccc(NS(=O)(=O)CCCF)c3F)nc12 | mTOR kinase (Homo sapiens, UniProt P42345) | 1 to 100 nM

Give a short answer stating reported IC50 for C[C@@H]1COCCN1c1nc(-c2ccc(N)nc2)nc2c(N3CCOCC3)cc(-c3cccc(NS(=O)(=O)CCCF)c3F)cc12 .
1 to 100 nM

Give a short answer stating reported IC50 for CCCS(=O)(=O)Nc1cccc(-c2cc(OC)c3nc(-c4cnc(N)nc4)nc(N4CCOCC4)c3c2)c1F .
100 to 1000 nM

Give a short answer stating reported IC50 for COc1cc(-c2cccc(NS(=O)(=O)CCCF)c2F)cc2c(N3CCOCC3)nc(-c3cnc(N)nc3C)nc12 .
100 to 1000 nM

Give a short answer stating reported IC50 for CCCNc1ccc(-c2nc(N3CCOCC3)c3cc(-c4cccc(NS(=O)(=O)CCCF)c4F)cc(OC)c3n2)cn1 .
100 to 1000 nM

Give a short answer stating reported IC50 for COc1cc(-c2cccc(NS(=O)(=O)c3ccccc3F)c2F)cc2c(N3CCOCC3)nc(-c3ccc(N)nc3)nc12 .
100 to 1000 nM
